// reported pIC50 per item
Target chain: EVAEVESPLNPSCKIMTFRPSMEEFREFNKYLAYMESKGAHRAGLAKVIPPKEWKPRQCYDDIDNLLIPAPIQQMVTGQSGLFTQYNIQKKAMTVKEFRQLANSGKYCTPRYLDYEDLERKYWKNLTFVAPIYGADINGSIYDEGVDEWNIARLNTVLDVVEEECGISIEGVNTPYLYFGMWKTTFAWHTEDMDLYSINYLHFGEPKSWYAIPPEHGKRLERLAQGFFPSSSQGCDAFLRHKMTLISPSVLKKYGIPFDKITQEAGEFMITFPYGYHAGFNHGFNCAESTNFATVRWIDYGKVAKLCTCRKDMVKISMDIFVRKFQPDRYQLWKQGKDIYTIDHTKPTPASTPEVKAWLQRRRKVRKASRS
pIC50: −log10 of the molar value.

Ask: Find the recorded pIC50 belonging to O=C(c1ccccc1)N1CC[C@H](n2cc(Oc3nc(O)c4ccncc4n3)cn2)C1 and report it.
Result: ≥ 7.00

Ask: Cn1cnc(-c2nccc3c(O)nc(O[C@@H](c4ccccc4)C(F)(F)F)nc23)c1 , same question.
Result: 6.00 to 7.00

Ask: Oc1nc(Oc2ccc(F)c(F)c2)nc2cnccc12 , same question.
Result: ≥ 7.00

Ask: Oc1nc(OCc2coc3ccccc23)nc2cnccc12 , same question.
Result: ≥ 7.00

Ask: Oc1nc(OCC2CCOc3ccccc32)nc2cnccc12 (centres unmarked) , same question.
Result: ≥ 7.00

Measured values drawn from patent US10526327B2 for this set.
